These entries and their values trace back to paper PMC9482650.

system.tested: GRIP2_6, Q9C0E4
Sequence (Q9C0E4 648-740): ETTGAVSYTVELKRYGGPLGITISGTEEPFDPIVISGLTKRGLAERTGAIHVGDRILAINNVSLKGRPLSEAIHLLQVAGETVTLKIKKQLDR
assay.name: holdup assay
Set-up: key: below the threshold = too weak to quantify, mostly under pKd 3.1 to 4
test.context: plain residues with an end cap or a label only (N-terminal biotin on a linker: ado-ado)
measure.name: pKd

- AQRARSPSDV [GPR12, P47775]: below the threshold
- LPAVCYDIDI [PTTG2, Q9NZH5]: 4.68
- DDASLPVSDV [PLEKHA1, Q9HB21]: below the threshold
- LKDDELKTKL [SLCO1A2, P46721]: below the threshold
- SPDRDRESIV [SCN5A, Q14524]: below the threshold
